- TARGET OF ASSAY: Orexin receptor type 2 (Homo sapiens)
- Sequence (O43614 whole entry): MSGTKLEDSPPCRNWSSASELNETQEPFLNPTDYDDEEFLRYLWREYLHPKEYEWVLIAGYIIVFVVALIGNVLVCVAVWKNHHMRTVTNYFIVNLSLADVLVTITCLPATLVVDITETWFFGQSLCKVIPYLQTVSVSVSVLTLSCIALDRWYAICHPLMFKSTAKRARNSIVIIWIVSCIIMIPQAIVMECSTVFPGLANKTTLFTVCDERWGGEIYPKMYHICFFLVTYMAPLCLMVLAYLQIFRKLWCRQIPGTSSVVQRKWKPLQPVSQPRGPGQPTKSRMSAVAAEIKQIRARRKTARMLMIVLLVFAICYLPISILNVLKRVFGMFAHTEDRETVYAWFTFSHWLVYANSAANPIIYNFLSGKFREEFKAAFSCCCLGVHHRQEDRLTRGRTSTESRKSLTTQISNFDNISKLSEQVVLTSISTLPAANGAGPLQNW
- RUN DESCRIPTION: Agonist activity at human OX2 receptor overexpressed in CHO-RD-HGA16 cells assessed as calcium mobilization after 15 mins by fluorescence assay
Where a SMILES comes first, the peptide text is derived from it.
Quick list: EC50 per entry.

| MOLECULE | TARGET OF ASSAY | EC50 |
| --- | --- | --- |
| CC[C@H](C)[C@H](NC(=O)CNC(=O)[C@H](C)NC(=O)[C@H](C)NC(=O)[C@H](Cc1cnc[nH]1)NC(=O)[C@H](CC(N)=O)NC(=O)CNC(=O)[C@H](C)NC(=O)CNC(=O)[C@H](Cc1cnc[nH]1)NC(=O)[C@H](CC(C)C)NC(=O)[C@H](CC(C)C)NC(=O)[C@H](CCC(=O)O)NC(=O)[C@@H]1CCCN1)C(=O)N[C@@H](CC(C)C)C(=O)N[C@H](C(=O)N[C@@H](CC(C)C)C(N)=O)[C@@H](C)O (H-PELLHGAGNHAAGILTL-NH2) | Orexin receptor type 2 (Homo sapiens) | 3.25 µM |
| CC[C@H](C)[C@H](NC(=O)CNC(=O)[C@H](C)NC(=O)[C@H](C)NC(=O)[C@H](Cc1cnc[nH]1)NC(=O)[C@H](CC(N)=O)NC(=O)CNC(=O)[C@H](C)NC(=O)[C@@H]1CCCN1C(=O)[C@H](Cc1cnc[nH]1)NC(=O)[C@H](CC(C)C)NC(=O)[C@H](CC(C)C)NC(=O)[C@H](CCC(=O)O)NC(=O)[C@@H](N)Cc1ccc(O)cc1)C(=O)N[C@@H](CC(C)C)C(=O)N[C@H](C(=O)N[C@@H](CC(C)C)C(N)=O)[C@@H](C)O (H-YELLHPAGNHAAGILTL-NH2) | Orexin receptor type 2 (Homo sapiens) | 2.18 µM |
